biological target: human Gal-1 (hGal-1); assay: Competitive binding assay: binding of biotinylated hGal-1 to microplate-adsorbed asialofetuin (ASF); conditions: Activities on hGal-1; mean values of several measurements
Sequence (P09382 2-135 limits assumed): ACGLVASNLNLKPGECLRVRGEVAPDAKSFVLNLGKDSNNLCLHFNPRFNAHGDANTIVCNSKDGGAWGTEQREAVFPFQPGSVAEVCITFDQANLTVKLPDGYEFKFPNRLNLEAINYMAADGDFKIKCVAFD
Classification field. Basis: IC50. Definitions: low (below 2 µM), middle (2 µM to below 5 µM), high (5 µM or more)

COMPOUND	ANSWER LABEL
CC(C)(C)OC(=O)N1CCC(C2=NOC(C[C@H]3O[C@H](CO)[C@H](O)[C@H](n4cc(-c5cc(F)c(F)c(F)c5)nn4)[C@H]3OCC(=O)O)C2)CC1 (mixture of isomers)	low
CO[C@@H]1[C@@H](n2cc(-c3ccc(Cl)c(F)c3F)nn2)[C@@H](O)[C@@H](CO)O[C@@H]1Cc1cc(C2(C)CCCC2)on1	middle
CO[C@@H]1[C@@H](n2cc(-c3cc(F)c(C)c(F)c3)nn2)[C@@H](O)[C@@H](CO)O[C@@H]1Cc1cc(C2CCN(S(C)(=O)=O)CC2)on1	low
CCCS(=O)(=O)N1CCC(c2cc(C[C@H]3O[C@H](CO)[C@H](O)[C@H](n4cc(-c5cc(F)c(F)c(F)c5)nn4)[C@H]3OC)no2)CC1	low
Cc1ccc(-c2cn([C@H]3[C@@H](O)[C@@H](CO)O[C@H](Cc4cc(C(C)(C)CO)no4)[C@@H]3O)nn2)c(F)c1F	middle
CO[C@@H]1[C@@H](n2cc(-c3ccc(Cl)c(F)c3F)nn2)[C@@H](O)[C@@H](CO)O[C@@H]1Cc1cn(C(C)(C)C)nn1	low
CO[C@@H]1[C@@H](n2cc(-c3cc(F)cc(Cl)c3)nn2)[C@@H](O)[C@@H](CO)O[C@@H]1Cc1cc(C(C)(C)C)on1	middle
CO[C@@H]1[C@@H](n2cc(-c3ccc(C)c(F)c3)nn2)[C@@H](O)[C@@H](CO)O[C@@H]1Cc1cc(C2CCCCC2)on1	high
CO[C@@H]1[C@@H](n2cc(-c3ccc(C)c(F)c3F)nn2)[C@@H](O)[C@@H](CO)O[C@@H]1Cc1cc(C2(O)CC2)on1	high
CO[C@@H]1[C@@H](n2cc(-c3cc(F)c(F)c(F)c3)nn2)[C@@H](O)[C@@H](CO)O[C@@H]1Cc1cc(C2CCN(C(=O)CC(C)C)CC2)on1	low
OC[C@H]1O[C@H](Cc2cc(C3CC3)on2)[C@H](O)[C@@H](n2cc(-c3cc(F)c(F)c(F)c3)nn2)[C@H]1O	high
CC(=O)N1CCC(C2=NOC(C[C@H]3O[C@H](CO)[C@H](O)[C@H](n4cc(-c5cc(F)c(F)c(F)c5)nn4)[C@H]3O)C2)CC1 (mixture of isomers)	middle
CO[C@@H]1[C@@H](n2cc(-c3cc(F)c(F)c(Cl)c3)nn2)[C@@H](O)[C@@H](CO)O[C@@H]1Cc1cc(C(C)(C)C)on1	low
CO[C@@H]1[C@@H](n2cc(-c3ccc(Br)c(F)c3)nn2)[C@@H](O)[C@@H](CO)O[C@@H]1Cc1cc(C2CCN(C(=O)OC(C)(C)C)CC2)on1	low
CCOC(=O)N1CCC(c2cc(C[C@H]3O[C@H](CO)[C@H](O)[C@H](n4cc(-c5ccc(F)c(F)c5F)nn4)[C@H]3OC)no2)CC1	low
CC(C)(C)OC(=O)N1CCC(C2=NOC(C[C@H]3O[C@H](CO)[C@H](O)[C@H](n4cc(-c5ccc6ncsc6c5)nn4)[C@H]3O)C2)CC1 (some centres unmarked)	low
CO[C@@H]1[C@@H](n2cc(-c3cc(F)c(F)c(F)c3)nn2)[C@@H](O)[C@@H](CO)O[C@@H]1Cc1cc(C23CCC(N)(CC2)CC3)on1	high
OC[C@H]1O[C@H](CC2=NOC(C3CCCCC3)C2)[C@H](O)[C@@H](n2cc(-c3cc(F)c(F)c(F)c3)nn2)[C@H]1O (some centres unmarked)	high
Cc1ccc(-c2cn([C@H]3[C@@H](O)[C@@H](CO)O[C@H](Cc4cc(C5(C)CC5)no4)[C@@H]3O)nn2)c(F)c1F	high
CC(C)(C)c1cc(C[C@H]2O[C@H](CO)[C@H](O)[C@H](n3cc(-c4cc(F)c(F)c(F)c4)nn3)[C@H]2OCC(=O)N2CC[C@H](O)C2)no1	middle
CO[C@@H]1[C@@H](n2cc(-c3ccc(F)c(F)c3F)nn2)[C@@H](O)[C@@H](CO)O[C@@H]1CC1CC(C2CCNCC2)=NO1 (some centres unmarked)	low
CO[C@@H]1[C@@H](n2cc(-c3cc(F)c(F)c(F)c3)nn2)[C@@H](O)[C@@H](CO)O[C@@H]1Cc1cc(C2CCN(CC3COC3)CC2)on1	high

These measurements were taken from patent US12319672B2.
